Recorded measurements of melting point, one per entry

Field: example entries. Status: answers known.
1. COC(=O)c1scc(Br)c1OC | 73 to 74 °C
2. O=C(O)c1cccc2c1OCC2 | 170 to 171 °C
3. CCCCSCCC(N)C(=O)O (racemic) | 238 to 243 °C

# compound O=C1C2CCCC1CCC2 ; its melting point = 153 to 157 °C

Briefly, melting point measured for C=C1c2cc(OC)c(OC)cc2CCN1C(C)=O : 107 to 109 °C

Lab note: measured melting point of Cn1ccnc1C(=O)O was 104 to 106 °C

----------
Result type: melting point

The following compounds have reported results that may help.
1. FC(F)(F)c1ccc(N2CCOCC2)c(CCl)c1 | 52 to 54 °C
2. CCCc1ccc(C(=O)CCC(=O)O)cc1 | 117 to 119 °C
3. C=C(C)C1Cc2c(cc(O)c3c2OC2COc4cc(OC)c(OC)cc4C2C3=O)O1 (stereo not given) | 195 °C
4. O=C(O)CS(=O)(=O)C=Cc1ccccc1 | 151 to 154 °C

Now for the compound whose melting point we want.
melting point in this record for N#Cc1cc([N+](=O)[O-])ccc1Sc1ccc(Cl)cc1 : 167 to 168 °C

----------
Result type: melting point (°C)
Answer in °C, number only, no unit symbol.

Field: example entries. Status: answers known.
1. Cc1cc(C#N)cc(Cl)c1N | 129
2. c1ccc(N=Nc2ccc(N=Nc3ccc(/N=N/c4ccc(N=Nc5ccccc5)cc4)cc3)cc2)cc1 | 275
3. CNc1ccc(N)c2c1C(=O)c1ccccc1C2=O | 193
4. O=Cc1cc([N+](=O)[O-])cc([N+](=O)[O-])c1O | 72.5
5. Cc1n[nH]c(C)c1Cl | 118

Data point: CC(=O)Nc1ccccc1N ; melting point = 135

For CNC(=O)ON=C1C(Cl)C2CC(C#N)C1C2 (configuration not stated) the molecule record lists melting point as 144

Query O=C1CN=C(c2ccccc2)c2cc([N+](=O)[O-])ccc2N1 yields melting point of 225

Form: molecule = NC(CO)Cc1ccccc1 (configuration not stated) ; melting point = 91.5

----------
Recorded measurements of melting point, one per entry

1) CSCCC(NS(=O)(=O)c1ccc(C)cc1)C(=O)O (racemic) | 105 to 108 °C
2) O=S(=O)(Cl)c1c(Cl)ccc2nonc12 | 73 to 75 °C
3) Cn1nc(CCl)c2ccccc21 | 62 to 63 °C
4) Cc1ccccc1OCC(=O)O | 155 to 157 °C

For this compound ( Nc1ccc(N=O)c(N)n1 ), measured melting point is 260 to 266 °C

Noted for NC(CCCC(F)(F)F)C(=O)O (stereo unspecified) : its melting point reads 272 to 274 °C

GET /value?item= O=C(c1ccccc1)c1cccc(O)c1 &field=melting point returns 117 to 119 °C

melting point reading for N#CCc1nc(-c2ccc([N+](=O)[O-])cc2)cs1 : 147 to 148 °C

melting point reading for O=C(O)c1cscc1C(=O)O : 227 to 231 °C

For COc1ccc(-c2csnn2)cc1 the compound record lists melting point as 89 to 93 °C

Record summary for NC(=O)NNC(N)=O : reported melting point = 247 to 250 °C

Item: Fc1cc(Br)cc(Br)c1Br | melting point: 30 to 34 °C

Record summary for CC12CCC(=O)C(O)=C1CCC1C2CCC2(C)C1CCC2(C)O (stereo unspecified) : reported melting point = 170 °C

So for CN1CC2CC(C1)c1cccc(=O)n1C2 (stereo unspecified) , the logged melting point turned out to be 137 °C

Input Cc1cc(C)c2c(c1)CC(C)(C)C(=O)OC2=O . Output melting point: 99 to 100 °C

Entry CC(C#N)CCC#N (stereo unspecified) , melting point reported as -45 °C
